Data origin: patent US9630949B2

# Target Of Assay: hMC4R (Homo sapiens (Human), UniProt P32245)
# Sequence (P32245 whole entry): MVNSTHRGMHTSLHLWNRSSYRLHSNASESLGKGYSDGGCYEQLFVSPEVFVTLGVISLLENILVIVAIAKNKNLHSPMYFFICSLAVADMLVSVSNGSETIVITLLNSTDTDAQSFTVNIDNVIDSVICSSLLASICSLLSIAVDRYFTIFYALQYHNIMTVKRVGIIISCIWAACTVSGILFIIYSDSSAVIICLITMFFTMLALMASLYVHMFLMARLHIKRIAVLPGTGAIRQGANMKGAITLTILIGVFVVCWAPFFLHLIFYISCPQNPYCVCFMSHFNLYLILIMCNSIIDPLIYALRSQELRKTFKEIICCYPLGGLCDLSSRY
# Experiment: Transactivation test: melanocortin receptors (pCRE-Luc luciferase reporter), hMC4R
# Condition Set: HEK293 transfected with pCRE-Luc and hMC4R; products tested alone (agonist), 6 h incubation; % activity vs NDP-MSH 10 nM; IA: inactive
Property Measured: pEC50
When answering, recall that pEC50 equals minus log10 of the concentration in mol/L, and write that number alone.

Prompt: Short answer please: pEC50, hMC4R (Homo sapiens (Human), UniProt P32245), entry COc1ccc(C[C@H](NC(=O)[C@H](Cc2c[nH]cn2)NC(=O)c2ccccc2)C(=O)N2CC(O)(C3CCCCC3)C2)cc1 [Compound 7]
Response: 5.40

Prompt: What do we get for CCCCOC1(c2ccccc2)CN(C(=O)[C@@H](Cc2ccc(Cl)cc2Cl)NC(=O)CCc2c[nH]cn2)C1 [Compound 19] ?
Response: 6.92

Prompt: What do we get for CCCCOC1(c2ccccc2C)CN(C(=O)[C@@H](Cc2ccc(OC)cc2)NC(=O)CCc2[nH]cnc2C)C1 [Compound 41] ?
Response: 6.00

Prompt: What do we get for CCCCCCOC1(c2ccccc2C)CN(C(=O)[C@@H](Cc2ccc(OC)cc2)NC(=O)CCc2c[nH]cn2)C1 [Compound 25] ?
Response: 5.10

Prompt: What do we get for CCCCOC1(c2ccccc2)CN(C(=O)[C@@H](CC2CCCCC2)NC(=O)CCc2c[nH]cn2)C1 [Compound 18] ?
Response: 5.10

Prompt: What do we get for CCCCCOC1(c2ccccc2C)CN(C(=O)[C@@H](Cc2ccc(OC)cc2)NC(=O)CCc2c[nH]cn2)C1 [Compound 24] ?
Response: 5.40

Prompt: What do we get for COc1ccc(C[C@@H](NC(=O)CCc2c[nH]cn2)C(=O)N2CC(OCC3CC3)(c3ccccc3)C2)cc1 [Compound 28] ?
Response: 5.10

Prompt: What do we get for CCCCCC1(c2c(F)cccc2F)CN(C(=O)[C@@H](Cc2ccc(OC)cc2)NC(=O)CCc2c[nH]cn2)C1 [Compound 61] ?
Response: 7.00

Prompt: What do we get for CCCCCC1(c2ccccc2)CN(C(=O)[C@@H](Cc2ccc(OC)cc2)NC(=O)CCc2c[nH]cn2)C1 [Compound 26] ?
Response: 5.40

---

Hi there, I'd appreciate the recorded pEC50 for every entry that follows.
# Target Of Assay: hMC4R (Homo sapiens (Human), UniProt P32245)
# Experiment: Transactivation test: melanocortin receptors (pCRE-Luc luciferase reporter), hMC4R
# Condition Set: HEK293 transfected with pCRE-Luc and hMC4R; products tested alone (agonist), 6 h incubation; % activity vs NDP-MSH 10 nM; IA: inactive
When answering, recall that pEC50 equals minus log10 of the concentration in mol/L, and write that number alone.

Prompt: Reported pEC50 for CCCC(=O)OC1(c2ccc(F)cc2)CN(C(=O)[C@H](Cc2ccc(OC)cc2)NC(=O)[C@H](Cc2c[nH]cn2)NC(=O)c2ccccc2)C1 : what is it?
Response: 5.10

Prompt: What do we get for CCOC1(c2ccccc2C)CN(C(=O)[C@H](Cc2ccc(OC)cc2)NC(=O)CCc2c[nH]cn2)C1 ?
Response: 4.82

Prompt: What do we get for CCCCOC1(c2ccccc2)CN(C(=O)[C@@H](Cc2ccc(F)cc2)NC(=O)CCc2c[nH]cn2)C1 ?
Response: 5.70

Prompt: What do we get for CCCCOC1(c2ccccc2C)CN(C(=O)C(Cc2ccc(Cl)cc2Cl)NC(=O)CC(CCC)c2c[nH]cn2)C1 (centres unmarked) ?
Response: 7.00

Prompt: What do we get for CCCCOC1(c2ccc(F)cc2)CN(C(=O)[C@H](Cc2ccc(OC)cc2)NC(=O)[C@H](Cc2c[nH]cn2)NC(=O)c2ccccc2)C1 ?
Response: 5.40

---

# Target Of Assay: UniProt Q01726
# Sequence (Q01726 whole entry): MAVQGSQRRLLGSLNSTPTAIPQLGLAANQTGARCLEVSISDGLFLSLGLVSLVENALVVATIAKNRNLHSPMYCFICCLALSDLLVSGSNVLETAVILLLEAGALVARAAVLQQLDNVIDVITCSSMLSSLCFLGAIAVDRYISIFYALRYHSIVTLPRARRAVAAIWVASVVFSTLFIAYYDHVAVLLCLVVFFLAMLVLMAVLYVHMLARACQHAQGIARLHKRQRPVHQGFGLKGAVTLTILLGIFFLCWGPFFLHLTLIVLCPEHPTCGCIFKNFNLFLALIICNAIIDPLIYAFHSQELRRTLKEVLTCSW
# Experiment: Transactivation test: melanocortin receptors (pCRE-Luc luciferase reporter), hMC1R
# Condition Set: HEK293 transfected with pCRE-Luc and hMC1R; products tested alone (agonist), 6 h incubation; % activity vs NDP-MSH 10 nM; IA: inactive
Property Measured: EC50
Provide a numeric answer, followed by its unit.

Prompt: Reported EC50 for CCCCOC1(c2cccc(F)c2)CN(C(=O)[C@H](Cc2ccc(OC)cc2)NC(=O)[C@H](Cc2c[nH]cn2)NC(=O)c2ccccc2)C1 : what is it?
Response: 0.12 µM

Prompt: What do we get for CCCCCC1(c2cccc(F)c2)CN(C(=O)[C@@H](Cc2ccc(OC)cc2)NC(=O)CCc2c[nH]cn2)C1 ?
Response: 0.12 µM

Prompt: What do we get for CCCCCC1(c2ccccc2)CN(C(=O)[C@@H](Cc2cccc(C(F)(F)F)c2)NC(=O)CCc2c[nH]cn2)C1 ?
Response: 1 µM

Prompt: What do we get for CCOC1(c2ccccc2C)CN(C(=O)[C@@H](Cc2ccc(OC)cc2)NC(=O)CCc2c[nH]cn2)C1 ?
Response: 0.25 µM

Prompt: What do we get for CCCCCCOC1(c2ccccc2C)CN(C(=O)[C@@H](Cc2ccc(OC)cc2)NC(=O)CCc2c[nH]cn2)C1 ?
Response: 1 µM

Prompt: What do we get for CCCCCC1(c2ccccc2)CN(C(=O)[C@@H](Cc2ccc(OC)cc2)NC(=O)CCc2cncn2C)C1 ?
Response: 2 µM

Prompt: What do we get for CCCCCC1(c2ccccc2C)CN(C(=O)[C@@H](Cc2ccc(OC)cc2)NC(=O)CCc2c[nH]cn2)C1 ?
Response: 0.25 µM

Prompt: What do we get for CCCCOC1(c2ccccc2C)CN(C(=O)[C@@H](Cc2ccc(OC)cc2)NC(=O)CCc2c[nH]nn2)C1 ?
Response: 8 µM

Prompt: What do we get for CCCOC1(c2ccccc2C)CN(C(=O)[C@@H](Cc2ccc(OC)cc2)NC(=O)CCc2c[nH]cn2)C1 ?
Response: 0.12 µM

Prompt: What do we get for CC#CCOC1(c2ccccc2C)CN(C(=O)[C@@H](Cc2ccc(OC)cc2)NC(=O)CCc2nc[nH]c2C)C1 ?
Response: 0.03 µM

Prompt: What do we get for CCCCOC1(c2ccccc2C)CN(C(=O)[C@@H](Cc2ccc(OC)cc2)NC(=O)CC(O)c2c[nH]cn2)C1 (stereo partly shown) ?
Response: 0.25 µM

Prompt: What do we get for CC#CCC1(c2ccccc2C)CN(C(=O)[C@@H](Cc2ccc(OC)cc2)NC(=O)CCc2c[nH]cn2)C1 ?
Response: 0.06 µM

Prompt: What do we get for CCCCOC1(c2ccccc2C)CN(C(=O)[C@H](Cc2ccc(OC)cc2)NC(=O)[C@H](Cc2c[nH]cn2)NC(=O)c2ccccc2)C1 ?
Response: 0.03 µM

Prompt: What do we get for CCCCCC1(c2ccccc2)CN(C(=O)[C@@H](Cc2ccccc2)NC(=O)CCc2c[nH]cn2)C1 ?
Response: 0.5 µM

Prompt: What do we get for CCCCCC1(c2cc(F)ccc2F)CN(C(=O)[C@@H](Cc2ccc(OC)cc2)NC(=O)CCc2c[nH]cn2)C1 ?
Response: 0.12 µM

Prompt: What do we get for COc1ccc(C[C@H](NC(=O)CCc2c[nH]cn2)C(=O)N2CC(O)(C3CCCCC3)C2)cc1 ?
Response: 8 µM

Prompt: What do we get for CCCCOC1(c2ccccc2C)CN(C(=O)[C@@H](Cc2ccc(OC)cc2)NC(=O)[C@@H](O)Cc2c[nH]cn2)C1 ?
Response: 0.06 µM

Prompt: What do we get for CCCCOC1(c2ccccc2C)CN(C(=O)[C@@H](Cc2ccc(OC)cc2)NC(=O)CCc2[nH]cnc2C)C1 ?
Response: 0.12 µM

Prompt: What do we get for COc1ccc(C[C@@H](NC(=O)CCc2nc[nH]c2C)C(=O)N2CC(OCC3CCC3)(c3ccccc3C)C2)cc1 ?
Response: 0.015 µM

Prompt: What do we get for CCCC(=O)OC1(c2ccccc2)CN(C(=O)[C@H](Cc2ccc(OC)cc2)NC(=O)[C@H](Cc2c[nH]cn2)NC(=O)c2ccccc2)C1 ?
Response: 0.5 µM

Prompt: What do we get for COc1ccc(C[C@H](NC(=O)[C@H](Cc2c[nH]cn2)NC(=O)c2ccccc2)C(=O)N2CC(OC(C)=O)(c3ccccc3C)C2)cc1 ?
Response: 4 µM

Prompt: What do we get for CCCCOC1(c2ccc(F)cc2)CN(C(=O)[C@@H](Cc2cccc(F)c2)NC(=O)CCc2c[nH]cn2)C1 ?
Response: 0.5 µM
